The following compounds each carry a recorded IC50 for human Gal-3 (hGal-3) (Homo sapiens (Human)).
Measurement Type: IC50 (nM)

P = CO[C@@H]1[C@@H](n2cc(-c3ccc(Cl)c(F)c3F)nn2)[C@@H](O)[C@@H](CO)O[C@H]1C(=O)N(c1cc(Br)cc(C#N)c1)[C@H]1CCC[C@@H]1O [Example 1.14.5]
Q = CO[C@@H]1[C@@H](n2cc(-c3ccc(C)c(F)c3)nn2)[C@@H](O)[C@@H](CO)O[C@H]1C(=O)N(c1cc(C)cc(C#N)c1)[C@@H]1CCC[C@H]1O [Example 1.13.8R]
R = CO[C@@H]1[C@@H](n2cc(-c3ccc(Cl)c(Cl)c3)nn2)[C@@H](O)[C@@H](CO)O[C@H]1C(=O)N(c1cc(Cl)cc(C#N)c1)[C@@H]1CC[C@H]1O [Example 2.8.4R]
Descending by IC50 please, for everything listed above. Please respond by ranking the labels in the order requested.
R, Q, P
(R: 401 nM, Q: 206 nM, P: 17.4 nM)

---

IC50 data for human Gal-3 (hGal-3) (Homo sapiens (Human)) follow.
Measurement Type: IC50 (nM)

Smiles Structure: CO[C@@H]1[C@@H](n2cc(-c3ccc(Br)c(F)c3F)nn2)[C@@H](O)[C@@H](CO)O[C@H]1C(=O)N(c1cc(F)cc(C#N)c1)[C@@H]1CCC[C@H]1O
IC50 / nM: 94.6
//
Smiles Structure: CO[C@@H]1[C@@H](n2cc(-c3cc(F)cc(Cl)c3)nn2)[C@@H](O)[C@@H](CO)O[C@H]1C(=O)N(c1cc(Br)cc(C#N)c1)[C@H]1CC[C@@H]1O
IC50 / nM: 123
//
Smiles Structure: Cc1c(F)cc(-c2cn([C@H]3[C@@H](O)[C@@H](CO)O[C@@H](C(=O)N(c4cc(Cl)cc(Cl)c4)[C@H]4CCC[C@@H]4O)[C@@H]3O)nn2)cc1F
IC50 / nM: 22.7

1 = CC(=O)O[C@@H]1[C@@H](n2cc(-c3cc(F)c(Cl)c(F)c3)nn2)[C@@H](O)[C@@H](CO)O[C@H]1C(=O)N(c1cc(Cl)cc(Cl)c1)[C@H]1CCC[C@@H]1O
2 = CO[C@@H]1[C@@H](n2cc(-c3cc(F)c(F)c(Cl)c3)nn2)[C@@H](O)[C@@H](CO)O[C@H]1C(=O)N(c1cc(Cl)cc(C#N)c1)[C@H]1CC[C@@H]1O
Between the two listed entries 1 and 2 , which has its IC50 at the higher number? When you have decided, please share the label of that item.
2

---

# Assay System: human Gal-3 (hGal-3) (Homo sapiens (Human), UniProt P17931)
# Sequence (P17931 whole entry): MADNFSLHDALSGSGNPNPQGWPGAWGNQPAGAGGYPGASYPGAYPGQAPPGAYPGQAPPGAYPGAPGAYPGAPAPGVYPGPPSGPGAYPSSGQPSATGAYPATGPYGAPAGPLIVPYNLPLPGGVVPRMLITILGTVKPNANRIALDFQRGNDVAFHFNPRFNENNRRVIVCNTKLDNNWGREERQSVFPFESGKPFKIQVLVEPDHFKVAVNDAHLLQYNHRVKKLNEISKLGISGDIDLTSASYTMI
Measurement Type: IC50 (nM)

Here's what some known entries look like.
Compound: CO[C@@H]1[C@@H](n2cc(-c3ccc(Cl)c(F)c3F)nn2)[C@@H](O)[C@@H](CO)O[C@H]1C(=O)N(c1cc(Cl)cc(C#N)c1)[C@H]1CCC[C@@H]1O [Example 1.14.4]
Meas Value: 12.5

Compound: CO[C@@H]1[C@@H](n2cc(-c3cc(F)c(F)c(F)c3)nn2)[C@@H](O)[C@@H](CO)O[C@H]1C(=O)N(c1cccc(Cl)c1)[C@H]1CCC[C@@H]1O [Example 1.1.1]
Meas Value: 36.5

Compound: CO[C@@H]1[C@@H](n2cc(-c3ccc(C)c(F)c3F)nn2)[C@@H](O)[C@@H](CO)O[C@H]1C(=O)N(c1cc(Br)cc(C#N)c1)[C@@H]1CCC[C@H]1O [Example 1.11.5R]
Meas Value: 73.1

a = COc1cc(-c2cn([C@H]3[C@@H](O)[C@@H](CO)O[C@@H](C(=O)N(c4cc(C)cc(Br)c4)[C@@H]4CCC[C@H]4O)[C@@H]3OC)nn2)cc(F)c1F [Example 1.3.12R]
b = COc1cc(C#N)cc(N(C(=O)[C@@H]2O[C@H](CO)[C@H](O)[C@H](n3cc(-c4cc(F)cc(Br)c4)nn3)[C@H]2OC)[C@@H]2CC[C@H]2O)c1 [Example 2.10.9R]
Of the pair a and b , name the member with the lesser recorded IC50. Please respond with the label that marks your chosen entry.
a

---

# Assay System: human Gal-3 (hGal-3) (Homo sapiens (Human))
Measurement Type: IC50 (nM)

Some solved entries appear below for comparison.
Compound: COc1cc(-c2cn([C@H]3[C@@H](O)[C@@H](CO)O[C@@H](C(=O)N(c4cc(Br)cc(Br)c4)[C@@H]4CC[C@H]4O)[C@@H]3OC)nn2)cc(F)c1F [Example 2.3.11R]
Assay System: human Gal-3 (hGal-3) (Homo sapiens (Human))
Measurement Type: IC50
Meas Value: 258

Compound: CO[C@@H]1[C@@H](n2cc(-c3cc(F)c(F)c(F)c3)nn2)[C@@H](O)[C@@H](CO)O[C@H]1C(=O)N(c1cc(Br)cc(Br)c1)[C@H]1CC[C@@H]1O
Assay System: human Gal-3 (hGal-3) (Homo sapiens (Human))
Measurement Type: IC50
Meas Value: 72.5

Compound: CO[C@@H]1[C@@H](n2cc(-c3ccc(Br)c(F)c3F)nn2)[C@@H](O)[C@@H](CO)O[C@H]1C(=O)N(c1cc(Cl)cc(C#N)c1)[C@H]1CC[C@@H]1O
Assay System: human Gal-3 (hGal-3) (Homo sapiens (Human))
Measurement Type: IC50
Meas Value: 45

Compound: COc1cc(-c2cn([C@H]3[C@@H](O)[C@@H](CO)O[C@@H](C(=O)N(c4cc(Br)cc(Br)c4)[C@@H]4CCC[C@H]4O)[C@@H]3OC)nn2)cc(F)c1F [Example 1.3.11R]
Assay System: human Gal-3 (hGal-3) (Homo sapiens (Human))
Measurement Type: IC50
Meas Value: 277

I = CO[C@@H]1[C@@H](n2cc(-c3ccc(C)c(F)c3F)nn2)[C@@H](O)[C@@H](CO)O[C@H]1C(=O)N(c1cc(Cl)cc(C#N)c1)[C@H]1CCC[C@@H]1O
II = CO[C@@H]1[C@@H](n2cc(-c3cc(F)c(Cl)c(Cl)c3)nn2)[C@@H](O)[C@@H](CO)O[C@H]1C(=O)N(c1cc(Cl)cc(C#N)c1)[C@H]1CC[C@@H]1O
# compare IC50 for I vs II ; return the one with the smaller value Response format: the label of the selected entry.
I

1 = CO[C@@H]1[C@@H](n2cc(-c3cc(F)cc(Cl)c3)nn2)[C@@H](O)[C@@H](CO)O[C@H]1C(=O)N(c1cc(Br)cc(C#N)c1)[C@@H]1CC[C@H]1O
2 = CO[C@@H]1[C@@H](n2cc(-c3ccc(Cl)cc3)nn2)[C@@H](O)[C@@H](CO)O[C@H]1C(=O)N(c1cc(Cl)cc(C#N)c1)[C@H]1CCC[C@@H]1O
Field: entry with larger IC50 (options 1 / 2 ). Respond using the label that marks the chosen record.
1
(1: 473 nM, 2: 90.7 nM)

I = CO[C@@H]1[C@@H](n2cc(-c3ccc(Br)c(F)c3F)nn2)[C@@H](O)[C@@H](CO)O[C@H]1C(=O)N(c1cc(Cl)cc(C#N)c1)[C@@H]1CC[C@H]1O
II = CO[C@@H]1[C@@H](n2cc(-c3cc(F)c(F)c(F)c3)nn2)[C@@H](O)[C@@H](CO)O[C@H]1C(=O)N(c1cc(C)cc(Cl)c1)[C@@H]1CC[C@H]1O
Of I and II , whose reported IC50 is the larger number? Please respond with the label that marks your chosen entry.
II

---

pIC50: −log10 of the molar value.
The next entries give measured pIC50 for UniProt P17931.
Measurement Type: pIC50

Compound: CO[C@@H]1[C@@H](n2cc(-c3cc(F)c(F)c(F)c3)nn2)[C@@H](O)[C@@H](CO)O[C@H]1C(=O)N(c1cccc(Br)c1)[C@@H]1CC[C@H]1O [Example 2.1.10R]
pIC50: 6.69

P = CO[C@@H]1[C@@H](n2cc(-c3ccc(C)c(F)c3F)nn2)[C@@H](O)[C@@H](CO)O[C@H]1C(=O)N(c1cc(Br)cc(C#N)c1)[C@H]1CC[C@@H]1O
Q = CO[C@@H]1[C@@H](n2cc(-c3cc(F)c(Cl)c(Cl)c3)nn2)[C@@H](O)[C@@H](CO)O[C@H]1C(=O)N(c1cc(Cl)cc(C#N)c1)[C@H]1CCC[C@@H]1O
Identify the entry with the larger pIC50. Options: P and Q Give the label of your selection.
P
(P: 7.77, Q: 7.53)

---

In what follows, each item is paired with its pIC50 for human Gal-3 (hGal-3) (Homo sapiens (Human), UniProt P17931).
pIC50: −log10 of the molar value.
Measurement Type: pIC50

Compound: CO[C@@H]1[C@@H](n2cc(-c3ccc(C)c(F)c3)nn2)[C@@H](O)[C@@H](CO)O[C@H]1C(=O)N(c1cc(Br)cc(C#N)c1)[C@@H]1CCC[C@H]1O
pIC50: 6.78

Compound: CO[C@@H]1[C@@H](n2cc(-c3cc(F)c(Br)c(F)c3)nn2)[C@@H](O)[C@@H](CO)O[C@H]1C(=O)N(c1cc(Br)cc(C#N)c1)[C@H]1CC[C@@H]1O
pIC50: 7.15

Compound: CO[C@@H]1[C@@H](n2cc(-c3cc(F)cc(Br)c3)nn2)[C@@H](O)[C@@H](CO)O[C@H]1C(=O)N(c1cc(C)cc(C#N)c1)[C@@H]1CC[C@H]1O
pIC50: 5.92

Compound: CO[C@@H]1[C@@H](n2cc(-c3cc(F)c(F)c(F)c3)nn2)[C@@H](O)[C@@H](CO)O[C@H]1C(=O)N(c1cc(Cl)cc(C#N)c1)[C@@H]1CC[C@H]1O
pIC50: 6.41

Compound: CO[C@@H]1[C@@H](n2cc(-c3cc(F)c(F)c(F)c3)nn2)[C@@H](O)[C@@H](CO)O[C@H]1C(=O)N(c1cc(C)cc(Cl)c1)[C@H]1CCC[C@@H]1O
pIC50: 7.46

Compound: CO[C@@H]1[C@@H](n2cc(-c3ccc(C#N)c(F)c3)nn2)[C@@H](O)[C@@H](CO)O[C@H]1C(=O)N(c1cc(C)cc(C#N)c1)[C@@H]1CCC[C@H]1O
pIC50: 5.90

Compound: CO[C@@H]1[C@@H](n2cc(-c3cc(F)c(F)c(F)c3)nn2)[C@@H](O)[C@@H](CO)O[C@H]1C(=O)N(c1cccc(Br)c1)[C@@H]1CCC[C@H]1O [Example 1.1.10R]
pIC50: 6.42

Compound: N#Cc1cc(Cl)cc(N(C(=O)[C@@H]2O[C@H](CO)[C@H](O)[C@H](n3cc(-c4cc(F)c(F)c(F)c4)nn3)[C@H]2O)[C@H]2CCC[C@@H]2O)c1
pIC50: 7.54

Compound: CO[C@@H]1[C@@H](n2cc(-c3cc(F)c(Br)c(F)c3)nn2)[C@@H](O)[C@@H](CO)O[C@H]1C(=O)N(c1cc(Cl)cc(C#N)c1)[C@@H]1CC[C@H]1O
pIC50: 6.76

Compound: CO[C@@H]1[C@@H](n2cc(-c3cc(F)cc(Br)c3)nn2)[C@@H](O)[C@@H](CO)O[C@H]1C(=O)N(c1cc(Cl)cc(C#N)c1)[C@@H]1CCC[C@H]1O
pIC50: 6.16

1 = CC(=O)O[C@@H]1[C@@H](n2cc(-c3cc(F)c(F)c(F)c3)nn2)[C@@H](O)[C@@H](CO)O[C@H]1C(=O)N(c1cc(Cl)cc(Cl)c1)[C@H]1CCC[C@@H]1O
2 = CC(=O)O[C@@H]1[C@@H](n2cc(-c3cc(F)c(C)c(F)c3)nn2)[C@@H](O)[C@@H](CO)O[C@H]1C(=O)N(c1cc(Cl)cc(Cl)c1)[C@H]1CCC[C@@H]1O
Larger number for pIC50: 1 , or 2 ? State the label of the item chosen.
2
(2: 7.89, 1: 7.64)

P = CO[C@@H]1[C@@H](n2cc(-c3cc(F)c(Cl)c(Cl)c3)nn2)[C@@H](O)[C@@H](CO)O[C@H]1C(=O)N(c1cc(Cl)cc(C#N)c1)[C@@H]1CCC[C@H]1O
Q = CO[C@@H]1[C@@H](n2cc(-c3ccc(Br)c(F)c3F)nn2)[C@@H](O)[C@@H](CO)O[C@H]1C(=O)N(c1cc(F)cc(C#N)c1)[C@H]1CCC[C@@H]1O
R = CO[C@@H]1[C@@H](n2cc(-c3ccc(Br)c(F)c3F)nn2)[C@@H](O)[C@@H](CO)O[C@H]1C(=O)N(c1cc(Br)cc(C#N)c1)[C@@H]1CC[C@H]1O
S = CO[C@@H]1[C@@H](n2cc(-c3ccc(Cl)cc3)nn2)[C@@H](O)[C@@H](CO)O[C@H]1C(=O)N(c1cc(Cl)cc(C#N)c1)[C@@H]1CCC[C@H]1O
List by increasing pIC50. Rank the items, then write their labels in that order.
S, P, R, Q
(S: 6.27, P: 6.62, R: 7.11, Q: 7.67)

A = CC(=O)O[C@@H]1[C@@H](n2cc(-c3cc(F)c(F)c(F)c3)nn2)[C@@H](O)[C@@H](CO)O[C@H]1C(=O)N(c1cc(Cl)cc(C#N)c1)[C@H]1CCC[C@@H]1O
B = CO[C@@H]1[C@@H](n2cc(-c3cc(F)c(Cl)c(F)c3)nn2)[C@@H](O)[C@@H](CO)O[C@H]1C(=O)N(c1cc(Cl)cc(C#N)c1)[C@H]1CC[C@@H]1O
Of A and B , whose reported pIC50 is numerically smaller? In your reply, give the label of the chosen option.
B
(B: 7.15, A: 7.60)
